target_entity: Prostaglandin D2 receptor 2 (Homo sapiens)
assay_name: Antagonist activity at human prostaglandin D2 receptor assessed as inhibition of PGD2-induced receptor activation by cell based FLIPR assay
Type: functional
property: Ki (nM)
State just the number; it will be interpreted in nM.

Enquiry: Quick one: Ki of Cc1noc(C)c1CN1C(c2c(C)n(CC(=O)O)c3ccccc23)c2ccccc2S1(=O)=O (racemic) ?
Return: 28

---

target_entity: Prostaglandin D2 receptor 2 (Homo sapiens, UniProt Q9Y5Y4)
assay_name: Binding affinity to human prostaglandin D2 receptor by cell based radioligand displacement assay
property: pKi
# pKi: negative log10 of molar concentration; output just the value

The cases that follow already have their pKi on record.
molecule: Cc1noc(C)c1CN1C(C)(c2c(C)n(CC(=O)O)c3ccccc23)c2ccccc2S1(=O)=O (racemic)
pKi: 7.42
--
molecule: Cc1c(C2NS(=O)(=O)c3ccccc32)c2cc(F)ccc2n1CC(=O)O (racemic)
pKi: 6.37
--
molecule: Cc1c(C2c3ccccc3S(=O)(=O)N2CCOc2ccccc2)c2ccccc2n1CC(=O)O (racemic)
pKi: 7.54
--
molecule: Cc1c(C2NS(=O)(=O)c3ccccc32)c2ccccc2n1CC(=O)O (racemic)
pKi: 5.55
--
molecule: Cc1c(C2c3ccccc3S(=O)(=O)N2CCO)c2ccccc2n1CC(=O)O (racemic)
pKi: 5.85

Enquiry: Quick one: pKi of O=C(O)Cn1cc(C2c3ccccc3S(=O)(=O)N2CCc2ccccc2)c2ccccc21 (racemic) ?
Return: 6.20

Enquiry: Cc1noc(C)c1CN1C(c2c(C)n(CC(=O)O)c3ccccc23)CCS1(=O)=O (racemic) ?
Return: 7.64

Enquiry: Cc1noc(-c2ccccc2)c1CN1C(c2c(C)n(CC(=O)O)c3ccccc23)c2ccccc2S1(=O)=O (racemic) ?
Return: 7.89

---

target_entity: Prostaglandin D2 receptor 2 (Homo sapiens, UniProt Q9Y5Y4)
assay_name: Binding affinity to human prostaglandin D2 receptor by cell based radioligand displacement assay
Each item that follows carries a reported Ki.
State just the number; it will be interpreted in µM.

The cases that follow already have their Ki on record.
compound: O=C(O)Cn1cc(C2c3ccccc3S(=O)(=O)N2Cc2ccccc2)c2ccccc21 (racemic)
readout_units: µM
Ki: 1.1
//
compound: O=C(O)Cn1cc(C2NS(=O)(=O)c3ccccc32)c2ccccc21 (racemic)
readout_units: µM
Ki: 9.2
//
compound: Cc1c(C2c3ccccc3S(=O)(=O)N2CCc2ccccc2)c2ccccc2n1CC(=O)O (racemic)
readout_units: µM
Ki: 0.22

Now for the compound whose Ki we want.
Enquiry: Tell me reported Ki for Cc1c(C2c3ccccc3S(=O)(=O)N2c2ccccc2)c2ccccc2n1CC(=O)O (racemic) , tested with Prostaglandin D2 receptor 2 (Homo sapiens, UniProt Q9Y5Y4).
Return: 0.48

---

target_entity: Prostaglandin D2 receptor 2 (Homo sapiens, UniProt Q9Y5Y4)
Sequence (Q9Y5Y4 whole entry): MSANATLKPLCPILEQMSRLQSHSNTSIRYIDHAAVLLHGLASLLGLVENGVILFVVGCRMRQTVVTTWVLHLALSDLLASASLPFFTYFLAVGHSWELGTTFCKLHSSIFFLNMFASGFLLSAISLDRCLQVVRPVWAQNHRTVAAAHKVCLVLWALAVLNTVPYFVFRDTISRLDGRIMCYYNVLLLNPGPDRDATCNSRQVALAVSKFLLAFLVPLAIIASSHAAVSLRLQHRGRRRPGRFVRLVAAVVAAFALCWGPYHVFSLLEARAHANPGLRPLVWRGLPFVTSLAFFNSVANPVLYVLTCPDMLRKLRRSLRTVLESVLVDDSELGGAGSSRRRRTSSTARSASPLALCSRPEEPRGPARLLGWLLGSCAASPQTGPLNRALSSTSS
assay_name: Binding affinity to human prostaglandin D2 receptor by cell based radioligand displacement assay
property: log10(Ki) (log10 of the value in µM)
Form field - Quantity: Ki; Unit: µM; Scale: log10

The cases that follow already have their log10(Ki) on record.
compound: Cc1ccc2c(c1)c(C1NS(=O)(=O)c3ccccc31)cn2CC(=O)O (racemic)
result_value: 0.46

compound: Cc1noc(C)c1CN1C(c2c(C)n(CC(=O)O)c3ccc(Cl)cc23)c2ccccc2S1(=O)=O (racemic)
result_value: -2.10

compound: Cc1noc(C)c1CN1C(c2c(C)n(CC(=O)O)c3ccccc23)c2ccccc2S1(=O)=O (racemic)
result_value: -1.92

compound: Cc1c(C2c3ccccc3S(=O)(=O)N2CCOc2ccc(Cl)cc2)c2ccccc2n1CC(=O)O (racemic)
result_value: -1.46

compound: Cc1c(C2NS(=O)(=O)c3ccccc32)c2cc(Cl)ccc2n1CC(=O)O (racemic)
result_value: -0.16

Now for the compound whose log10(Ki) we want.
Enquiry: Quick one: log10(Ki) of Cc1c(C2c3ccccc3S(=O)(=O)N2CCC(C)C)c2ccccc2n1CC(=O)O (racemic) ?
Return: -0.25
